What IC50 was measured for each of the following?
I only need the number, in µM, no unit after it.

Note to self: IC50 of O=C1NCCCSc2c1sc1ccc(O)cc21 with PLK1 (Homo sapiens, UniProt P53350) was 13

The measured IC50 that O=C1NCCSc2c1sc1ccc(O)cc21 showed for PLK1 (Homo sapiens, UniProt P53350) is 17

* * *

system under test: UniProt:Q15139
Sequence (Q15139 whole entry): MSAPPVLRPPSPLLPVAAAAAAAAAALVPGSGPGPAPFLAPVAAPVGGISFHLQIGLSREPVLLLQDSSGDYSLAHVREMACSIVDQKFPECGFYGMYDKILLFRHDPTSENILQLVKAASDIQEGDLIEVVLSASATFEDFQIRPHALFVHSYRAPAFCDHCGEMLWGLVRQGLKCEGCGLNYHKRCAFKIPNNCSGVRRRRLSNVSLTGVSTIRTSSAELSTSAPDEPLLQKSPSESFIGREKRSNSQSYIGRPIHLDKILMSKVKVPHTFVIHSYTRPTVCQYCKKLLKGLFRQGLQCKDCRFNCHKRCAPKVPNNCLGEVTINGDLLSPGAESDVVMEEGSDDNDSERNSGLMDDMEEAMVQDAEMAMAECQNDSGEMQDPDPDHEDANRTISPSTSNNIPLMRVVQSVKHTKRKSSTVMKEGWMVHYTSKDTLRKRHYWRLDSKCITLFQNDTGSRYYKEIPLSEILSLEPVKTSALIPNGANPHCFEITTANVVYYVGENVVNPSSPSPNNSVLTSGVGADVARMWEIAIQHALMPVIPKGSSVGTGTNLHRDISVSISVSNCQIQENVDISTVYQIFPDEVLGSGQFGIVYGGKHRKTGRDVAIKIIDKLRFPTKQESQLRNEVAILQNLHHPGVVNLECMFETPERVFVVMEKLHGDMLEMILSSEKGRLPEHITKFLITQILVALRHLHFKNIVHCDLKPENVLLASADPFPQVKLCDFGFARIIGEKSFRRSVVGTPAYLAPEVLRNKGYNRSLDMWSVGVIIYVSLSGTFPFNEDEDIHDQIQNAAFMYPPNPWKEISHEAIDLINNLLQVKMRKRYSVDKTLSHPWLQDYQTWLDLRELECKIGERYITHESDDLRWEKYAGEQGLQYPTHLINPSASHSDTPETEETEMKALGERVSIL
measurement description: Cellular inhibition of PMA-induced PKD1 S916 autophosphorylation in LNCaP cells (Western blot densitometry)
Assay type: cell-based
Set-up: endogenous in cells; host or cells: LNCaP prostate cancer cells
test parameters: PKD1 autophosphorylation at S916 in LNCaP cells
measured endpoint: IC50

The compound O=C1NCCCc2c1[nH]c1ccc(O)cc21 [kb-NB123-57] showed IC50 equal to > 50 µM

Measured IC50 of O=C1NCCSc2c1sc1ccc(O)cc21 [kb-NB142-70] : 2.2 µM

IC50 measured on COc1ccc2sc3c(c2c1)SCCNC3=O [kb-NB165-09] = 3.1 µM

Lookup result for O=C1NCCSc2c1sc1ccc(O)c(I)c21 [kb-NB165-31] ; measured IC50: 8.6 µM

According to the records, this compound COc1ncc2sc3c(c2n1)SCCNC3=O [kmg-NB4-23] displays IC50 of 6.8 µM

Just so you know, measured IC50 for O=C1NCCCc2c1oc1ccc(O)cc21 [CID755673, reference compound] came out at 11.8 µM

Lab note: COc1ccc2sc3c(c2c1)SCCCNC3=O [kb-NB184-02] gave IC50 of 18.6 µM
